# Measured target: EGFR Del19/C797S (Homo sapiens, UniProt P00533, C797S/DEL746-750)
# Sequence (P00533 with tags, fused parts or gaps DEL746-750/C797S): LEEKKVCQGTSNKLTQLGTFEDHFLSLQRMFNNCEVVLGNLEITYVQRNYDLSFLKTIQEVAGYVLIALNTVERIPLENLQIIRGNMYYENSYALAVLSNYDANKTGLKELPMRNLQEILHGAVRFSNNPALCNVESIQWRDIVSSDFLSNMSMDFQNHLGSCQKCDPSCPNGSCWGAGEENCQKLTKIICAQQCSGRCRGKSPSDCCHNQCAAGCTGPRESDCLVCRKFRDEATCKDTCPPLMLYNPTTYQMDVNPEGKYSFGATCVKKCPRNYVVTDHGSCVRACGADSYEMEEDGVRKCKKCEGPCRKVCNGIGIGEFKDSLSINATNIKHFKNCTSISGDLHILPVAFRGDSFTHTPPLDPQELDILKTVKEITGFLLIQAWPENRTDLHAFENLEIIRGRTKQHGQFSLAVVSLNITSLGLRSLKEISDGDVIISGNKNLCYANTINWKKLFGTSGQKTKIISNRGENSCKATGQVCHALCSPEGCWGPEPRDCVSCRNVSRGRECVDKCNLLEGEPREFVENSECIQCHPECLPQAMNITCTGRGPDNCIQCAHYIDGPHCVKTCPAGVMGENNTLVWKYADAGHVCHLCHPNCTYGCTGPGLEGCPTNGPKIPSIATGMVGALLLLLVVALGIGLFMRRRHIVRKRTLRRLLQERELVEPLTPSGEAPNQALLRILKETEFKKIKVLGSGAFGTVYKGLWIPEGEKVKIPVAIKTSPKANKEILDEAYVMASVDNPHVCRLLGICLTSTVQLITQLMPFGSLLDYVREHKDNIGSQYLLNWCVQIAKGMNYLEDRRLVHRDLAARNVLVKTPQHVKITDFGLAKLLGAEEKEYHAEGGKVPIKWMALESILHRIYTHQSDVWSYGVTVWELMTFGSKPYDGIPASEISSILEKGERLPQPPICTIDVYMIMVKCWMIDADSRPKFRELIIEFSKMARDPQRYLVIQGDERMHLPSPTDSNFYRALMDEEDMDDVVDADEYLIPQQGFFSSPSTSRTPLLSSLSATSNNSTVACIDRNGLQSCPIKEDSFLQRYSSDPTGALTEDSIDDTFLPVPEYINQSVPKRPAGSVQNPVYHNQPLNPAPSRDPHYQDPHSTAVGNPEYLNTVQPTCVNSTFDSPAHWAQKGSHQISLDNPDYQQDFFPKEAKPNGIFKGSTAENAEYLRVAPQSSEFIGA
# Procedure summary: Biochemical EGFR kinase inhibition assay (Lance Ultra TR-FRET), double mutant del19/C797S
# Condition summary: ATP at Km; read-out: IC50 Del19/C797S (nM), Km ATP
# Method: Biochemical EGFR kinase assays were conducted using Lance Ultra time-resolved fluorescence resonance energy transfer (TR-FRET) technology from Perkin-Elmer. […] Each kinase reactions were incubated at room temperature for 1 hour and then stopped by the addition of 4 μL of stop solution (10 mM EDTA). […] After 60 minutes incubation at room temperature the LANCE signal was measured on an EnVision Multilabel Reader (Perkin-Elmer). […]
Experimental endpoint: log10(IC50) (log10 of the value in nM)

[[record]]
compound = "CC1(CO)CCN(c2cc(Nc3ccnc(-c4cnn(S(=O)(=O)C5CC5)c4)n3)ncc2C#Cc2cccc(C(=O)N3CCOCC3)n2)CC1"
experimental_endpoint = "log10(IC50)"
data_value = -0.10

[[record]]
compound = "CN(C)C[C@H]1CC[C@@H](Nc2cc(Nc3ccnc(-c4cnn(S(=O)(=O)C5CC5)c4)n3)ncc2C#Cc2cnn(CC3CC3)c2)CC1"
experimental_endpoint = "log10(IC50)"
data_value = 0.38

[[record]]
compound = "CN(C)CCCn1cc(C#Cc2cnc(Nc3ccnc(-c4cnn(S(=O)(=O)C5CC5)c4)n3)cc2N2CCC3(CC2)CC(C)(O)C3)cn1"
experimental_endpoint = "log10(IC50)"
data_value = -1.00

[[record]]
compound = "O=S(=O)(C1CC1)n1cc(-c2nccc(Nc3cc(N[C@H]4CC[C@@H](O)CC4)c(C#Cc4cccc(NCCN5CCOCC5)c4)cn3)n2)cn1"
experimental_endpoint = "log10(IC50)"
data_value = 0.79

[[record]]
compound = "O=S(=O)(C1CC1)n1cc(-c2nccc(Nc3cc(N[C@H]4CC[C@@H](O)CC4)c(C#CC4(O)CCOCC4)cn3)n2)cn1"
experimental_endpoint = "log10(IC50)"
data_value = 0.78

[[record]]
compound = "C[C@]1(O)CC[C@@H](Nc2cc(Nc3ccnc(-c4cnn(S(=O)(=O)C5CC5)c4)n3)ncc2C#Cc2cnn(CC(F)F)c2)CC1"
experimental_endpoint = "log10(IC50)"
data_value = 0.65

[[record]]
compound = "O=S(=O)(C1CC1)n1cc(-c2nccc(Nc3cc(N[C@H]4CC[C@@H](CO)CC4)c(C#Cc4cnn(CC(F)F)c4)cn3)n2)cn1"
experimental_endpoint = "log10(IC50)"
data_value = 0.11

[[record]]
compound = "CC1(CO)CCN(c2cc(Nc3ccnc(-c4cnn(S(=O)(=O)C5CC5)c4)n3)ncc2C#CC2CCCCC2)CC1"
experimental_endpoint = "log10(IC50)"
data_value = 1.56

[[record]]
compound = "CC1(CO)CCN(c2cc(Nc3ccnc(-c4cnn(S(=O)(=O)C5CC5)c4)n3)ncc2C#Cc2ccc(C(=O)N3CCOCC3)cc2)CC1"
experimental_endpoint = "log10(IC50)"
data_value = -0.10

[[record]]
compound = "CN(C)S(=O)(=O)n1cc(-c2nccc(Nc3cc(N4CCC(C)(CO)CC4)c(C#Cc4cnn(C(F)(F)F)c4)cn3)n2)cn1"
experimental_endpoint = "log10(IC50)"
data_value = 1.55

[[record]]
compound = "CN(C)C[C@H]1CC[C@@H](Nc2cc(Nc3ccnc(-c4cnn(S(=O)(=O)C5CC5)c4)n3)ncc2C#Cc2cnn(C)c2)CC1"
experimental_endpoint = "log10(IC50)"
data_value = 0.04

[[record]]
compound = "CC1(CO)CCN(c2cc(Nc3ccnc(-c4cnn(S(=O)(=O)C5CC5)c4)n3)ncc2C#Cc2cnn(CC3CCCOC3)c2)CC1 (centres unmarked)"
experimental_endpoint = "log10(IC50)"
data_value = 0.08

[[record]]
compound = "Cn1cc(C#Cc2cnc(Nc3ccnc(-c4cnn(S(=O)(=O)C5CC5)c4)n3)cc2N2CCC3(CCNCC3)C2)cn1"
experimental_endpoint = "log10(IC50)"
data_value = 0.78

[[record]]
compound = "CC1(CO)CCN(c2cc(Nc3ccnc(-c4cnn(S(=O)(=O)C5CC5)c4)n3)ncc2C#Cc2cnc(CN3CCOCC3)s2)CC1"
experimental_endpoint = "log10(IC50)"
data_value = 0.04

